biological target: UniProt O00187; experiment: biochemical; type: biochemical
Sequence (O00187 445-686): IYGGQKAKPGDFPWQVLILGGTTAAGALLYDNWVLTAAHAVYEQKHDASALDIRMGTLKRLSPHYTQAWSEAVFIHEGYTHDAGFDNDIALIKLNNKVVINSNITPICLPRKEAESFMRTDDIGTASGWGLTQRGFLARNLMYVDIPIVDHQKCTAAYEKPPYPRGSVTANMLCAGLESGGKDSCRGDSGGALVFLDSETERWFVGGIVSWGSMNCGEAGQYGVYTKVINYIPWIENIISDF
pKi: −log10 of the molar value. Where a name gives a salt, the structure may show the parent alone.
Endpoint Name: pKi

1) C[C@H](NC(=O)[C@H]1C[C@H](c2ccccc2)CN1)C(=O)NCc1cc(N)n[nH]1 [compound 1336, Dihydrochloride]	4.60 to 5.00
2) C[C@H](NC(=O)[C@H]1C[C@H](c2ccccc2)CN1)C(=O)NCc1cnc2[nH]nc(Cl)c2c1 [compound 1384, Dihydrochloride]	4.60 to 5.00
3) Cc1ccc(-c2nc3cc(C(=N)N)ccc3[nH]2)nc1 [compound 2010, dihydrochloride]	< 4.60
4) C[C@H](NC(=O)[C@H]1C[C@H](c2ccccc2)CN1)C(=O)NCc1ccc(C(N)=O)nc1 [compound 1273]	4.60 to 5.00
